Experiment: Phase 1 single-dose plasma pharmacokinetics in subjects with normal hepatic function, mild or moderate hepatic impairment
Assay type: in vivo, human
Conditions: human, plasma, po, 200 mg, Mild Hepatic Impairment; 200 mg single oral dose; read-out: tmax, Median
reported_property: Tmax (h)
Answers are plain numbers, in h.

// query Fill in: Tmax of `N#CC1(c2ccc(NC(=O)c3cccnc3NCc3ccncc3)cc2)CCCC1` is ___
// result 2.5

###

Experiment: Phase 1 study: unbound plasma concentration and fraction unbound (protein binding)
Assay type: in vivo, human
Conditions: human, plasma, po, 200 mg, Moderate Hepatic Impairment; 4 h; 200 mg single oral dose; read-out: Unbound Concentration, Arithmetic Mean
reported_property: concentration at 4 h (ng/mL)
Give bare numbers, in ng/mL.

// query Consider the compound shown here: N#CC1(c2ccc(NC(=O)c3cccnc3NCc3ccncc3)cc2)CCCC1 [Rivoceranib] What is its recorded concentration at 4 h?
// result 4.73

###

Assay: Phase 1 single-dose plasma pharmacokinetics in subjects with normal hepatic function, mild or moderate hepatic impairment
Assay type: in vivo, human
Conditions: human, plasma, po, 200 mg, Moderate Hepatic Impairment; 2 h; 200 mg single oral dose; read-out: Plasma concentration, Geometric Mean
reported_property: concentration at 2 h (ng/mL)
Give bare numbers, in ng/mL.

// query // returns reported concentration at 2 h for input N#CC1(c2ccc(NC(=O)c3cccnc3NCc3ccncc3)cc2)CCCC1 [Rivoceranib]
// result 178

###

Assay: Phase 1 study: unbound plasma concentration and fraction unbound (protein binding)
Format: in vivo, human
Conditions: human, plasma, po, 200 mg, Normal Hepatic Function; 24 h; 200 mg single oral dose; read-out: Fraction Unbound, Median
reported_property: fraction unbound at 24 h
Numbers only.

// query Given the entry N#CC1(c2ccc(NC(=O)c3cccnc3NCc3ccncc3)cc2)CCCC1 [Rivoceranib] , report its measured fraction unbound at 24 h.
// result 0.0155

###

Experiment: Phase 1 single-dose plasma pharmacokinetics in subjects with normal hepatic function, mild or moderate hepatic impairment
Type: in vivo, human
Conditions: human, plasma, po, 200 mg, Mild Hepatic Impairment; 200 mg single oral dose; read-out: t1/2, Geometric Mean (converted)
reported_property: half-life (h)
Give bare numbers, in h.

// query Given the compound `N#CC1(c2ccc(NC(=O)c3cccnc3NCc3ccncc3)cc2)CCCC1` , what is its reported half-life?
// result 12.4

###

Assay: Phase 1 single-dose plasma pharmacokinetics in subjects with normal hepatic function, mild or moderate hepatic impairment
Assay type: in vivo, human
Details: human, plasma, po, 200 mg, Normal Hepatic Function; 2 h; 200 mg single oral dose; read-out: Plasma concentration, Geometric Mean
reported_property: concentration at 2 h (ng/mL)
Answers are plain numbers, in ng/mL.

// query If you can, please state the reported concentration at 2 h value of `N#CC1(c2ccc(NC(=O)c3cccnc3NCc3ccncc3)cc2)CCCC1` .
// result 204

###

Assay: Phase 1 study: unbound plasma concentration and fraction unbound (protein binding)
Assay type: in vivo, human
Conditions: human, plasma, po, 200 mg, Normal Hepatic Function; 24 h; 200 mg single oral dose; read-out: Unbound Concentration, Geometric Mean
reported_property: concentration at 24 h (ng/mL)
Numbers only, in ng/mL.

// query Form field: reported concentration at 24 h of `N#CC1(c2ccc(NC(=O)c3cccnc3NCc3ccncc3)cc2)CCCC1`
// result 0.68

###

Test: Phase 1 single-dose plasma pharmacokinetics in subjects with normal hepatic function, mild or moderate hepatic impairment
Assay type: in vivo, human
Conditions: human, plasma, po, 200 mg, Moderate Hepatic Impairment; 0.5 h; 200 mg single oral dose; read-out: Plasma concentration, Geometric Mean
reported_property: concentration at 0.5 h (ng/mL)
Answers are plain numbers, in ng/mL.

// query Looking for the measured concentration at 0.5 h of N#CC1(c2ccc(NC(=O)c3cccnc3NCc3ccncc3)cc2)CCCC1 [Rivoceranib] , can you help?
// result 57.1

###

Test: Phase 1 single-dose plasma pharmacokinetics in subjects with normal hepatic function, mild or moderate hepatic impairment
Type: in vivo, human
Settings: human, plasma, po, 200 mg, Normal Hepatic Function; 6 h; 200 mg single oral dose; read-out: Plasma concentration, Geometric Mean
reported_property: concentration at 6 h
The reply should consist of the numeric value with the unit placed after it.

// query Look at this compound and give its reported concentration at 6 h. `N#CC1(c2ccc(NC(=O)c3cccnc3NCc3ccncc3)cc2)CCCC1`
// result 117 ng/mL

###

Assay: Phase 1 single-dose plasma pharmacokinetics in subjects with normal hepatic function, mild or moderate hepatic impairment
Assay type: in vivo, human
Conditions: human, plasma, po, 200 mg, Moderate Hepatic Impairment; 1 h; 200 mg single oral dose; read-out: Plasma concentration, Median
reported_property: concentration at 1 h (ng/mL)
One number for each entry, in ng/mL.

// query Given `N#CC1(c2ccc(NC(=O)c3cccnc3NCc3ccncc3)cc2)CCCC1` , state its recorded concentration at 1 h.
// result 154

###

Test: Phase 1 single-dose plasma pharmacokinetics in subjects with normal hepatic function, mild or moderate hepatic impairment
Type: in vivo, human
Details: human, plasma, po, 200 mg, Mild Hepatic Impairment; 1 h; 200 mg single oral dose; read-out: Plasma concentration, Geometric Mean
reported_property: concentration at 1 h (ng/mL)
Answers are plain numbers, in ng/mL.

// query # get_value(readout='concentration at 1 h', item= N#CC1(c2ccc(NC(=O)c3cccnc3NCc3ccncc3)cc2)CCCC1 [Rivoceranib] )
// result 112

###

Test: Phase 1 single-dose plasma pharmacokinetics in subjects with normal hepatic function, mild or moderate hepatic impairment
Format: in vivo, human
Conditions: human, plasma, po, 200 mg, Moderate Hepatic Impairment; 200 mg single oral dose; read-out: VZ/F, Median
reported_property: Vd/F
Please format your answer as a value with the unit trailing.

// query // returns reported Vd/F for input `N#CC1(c2ccc(NC(=O)c3cccnc3NCc3ccncc3)cc2)CCCC1`
// result 2090 L

###

Assay: Phase 1 single-dose plasma pharmacokinetics in subjects with normal hepatic function, mild or moderate hepatic impairment
Format: in vivo, human
Settings: human, plasma, po, 200 mg, Moderate Hepatic Impairment; 1 h; 200 mg single oral dose; read-out: Plasma concentration, Geometric Mean
reported_property: concentration at 1 h
# answer = value followed by unit

// query Any idea what concentration at 1 h was measured for `N#CC1(c2ccc(NC(=O)c3cccnc3NCc3ccncc3)cc2)CCCC1` ?
// result 140 ng/mL

###

Experiment: Phase 1 single-dose plasma pharmacokinetics in subjects with normal hepatic function, mild or moderate hepatic impairment
Format: in vivo, human
Conditions: human, plasma, po, 200 mg, Normal Hepatic Function; 4 h; 200 mg single oral dose; read-out: Plasma concentration, Median
reported_property: concentration at 4 h (ng/mL)
Numbers only, in ng/mL.

// query Which concentration at 4 h is listed for `N#CC1(c2ccc(NC(=O)c3cccnc3NCc3ccncc3)cc2)CCCC1` ?
// result 147

###

Experiment: Phase 1 single-dose plasma pharmacokinetics in subjects with normal hepatic function, mild or moderate hepatic impairment
Format: in vivo, human
Conditions: human, plasma, po, 200 mg, Mild Hepatic Impairment; 4 h; 200 mg single oral dose; read-out: Plasma concentration, Arithmetic Mean
reported_property: concentration at 4 h
Remember to follow the number with its unit.

// query Which concentration at 4 h is reported for this compound? `N#CC1(c2ccc(NC(=O)c3cccnc3NCc3ccncc3)cc2)CCCC1`
// result 164 ng/mL

###

Assay: Phase 1 single-dose plasma pharmacokinetics in subjects with normal hepatic function, mild or moderate hepatic impairment
Format: in vivo, human
Conditions: human, plasma, po, 200 mg, Moderate Hepatic Impairment; 200 mg single oral dose; read-out: AUC0-∞, Median
reported_property: AUC(0-inf) (ng·h/mL)
Answers are plain numbers, in ng·h/mL.

// query Which AUC(0-inf) value is on record for N#CC1(c2ccc(NC(=O)c3cccnc3NCc3ccncc3)cc2)CCCC1 [Rivoceranib] ?
// result 2590

###

Assay: Phase 1 single-dose plasma pharmacokinetics in subjects with normal hepatic function, mild or moderate hepatic impairment
Format: in vivo, human
Details: human, plasma, po, 200 mg, Normal Hepatic Function; 8 h; 200 mg single oral dose; read-out: Plasma concentration, Median
reported_property: concentration at 8 h (ng/mL)
Give bare numbers, in ng/mL.

// query Suppose we examine the molecule `N#CC1(c2ccc(NC(=O)c3cccnc3NCc3ccncc3)cc2)CCCC1` ; what concentration at 8 h value has been reported?
// result 81

###

Experiment: Phase 1 single-dose plasma pharmacokinetics in subjects with normal hepatic function, mild or moderate hepatic impairment
Format: in vivo, human
Conditions: human, plasma, po, 200 mg, Moderate Hepatic Impairment; 12 h; 200 mg single oral dose; read-out: Plasma concentration, Geometric Mean
reported_property: concentration at 12 h (ng/mL)
One number for each entry, in ng/mL.

// query Item under review: `N#CC1(c2ccc(NC(=O)c3cccnc3NCc3ccncc3)cc2)CCCC1` . Reported concentration at 12 h?
// result 58.2

###

Test: Phase 1 study: unbound plasma concentration and fraction unbound (protein binding)
Type: in vivo, human
Details: human, plasma, po, 200 mg, Normal Hepatic Function; 4 h; 200 mg single oral dose; read-out: Unbound Concentration, Median
reported_property: concentration at 4 h (ng/mL)
Give bare numbers, in ng/mL.

// query Quick one: concentration at 4 h for `N#CC1(c2ccc(NC(=O)c3cccnc3NCc3ccncc3)cc2)CCCC1` ?
// result 3.76
